# tgt: Muscarinic acetylcholine receptor M2 (Rattus norvegicus, UniProt P10980)
# Sequence (P10980 whole entry): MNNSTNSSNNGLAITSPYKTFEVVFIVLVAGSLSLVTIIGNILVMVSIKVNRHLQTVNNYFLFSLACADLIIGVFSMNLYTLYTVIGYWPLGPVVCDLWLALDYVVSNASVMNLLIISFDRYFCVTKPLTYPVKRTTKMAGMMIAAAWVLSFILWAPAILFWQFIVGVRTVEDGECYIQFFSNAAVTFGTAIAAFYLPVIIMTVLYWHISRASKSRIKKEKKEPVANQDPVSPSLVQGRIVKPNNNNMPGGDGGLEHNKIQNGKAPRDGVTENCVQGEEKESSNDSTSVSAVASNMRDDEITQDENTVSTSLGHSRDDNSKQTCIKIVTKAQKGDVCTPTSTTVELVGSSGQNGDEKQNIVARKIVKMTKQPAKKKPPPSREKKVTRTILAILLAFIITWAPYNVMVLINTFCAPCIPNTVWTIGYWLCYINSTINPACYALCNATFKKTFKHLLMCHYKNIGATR
Structures can show the parent of a compound that is named as a salt.
Binary label based on Ki with cut-off 4 µM: below gives satisfied, not below gives not satisfied.

### Prompt Is it true that Ki reported for CNCCC(Oc1ccccc1OC)c1ccccc1 (centres undefined) is less than 4 µM?
### Response not satisfied

### Prompt Take the compound CN[C@H]1C[C@H](c2ccc(Cl)c(Cl)c2)c2ccccc21 and say whether its Ki is less than 4 µM.
### Response not satisfied

### Prompt I wonder whether CN(C)CCCC1(c2ccc(F)cc2)OCc2cc(C#N)ccc21 (centres undefined) [CITALOPRAM HYDROBROMIDE] has Ki below 4 µM. Can you tell?
### Response not satisfied

### Prompt Strictly below 4 µM: is that where Ki of CC(NC(C)(C)C)C(=O)c1cccc(Cl)c1 (centres undefined) [BUPROPION HYDROCHLORIDE] sits?
### Response not satisfied

### Prompt Lab log: compare recorded Ki with 4 µM; is it strictly lower for Fc1ccc(C(OCCN2CCN(C/C=C/c3ccccc3)CC2)c2ccc(F)cc2)cc1 ?
### Response satisfied

### Prompt In plain terms, does CNCCCC1(c2ccccc2)SC(C)(C)c2ccccc21 (centres undefined) come in under 4 µM for Ki?
### Response satisfied

### Prompt Given the entry CN(C)C[C@@H]1C2CCC(CC2)[C@@H]1c1ccc(Cl)c(Cl)c1 , would its reported Ki be below 4 µM?
### Response not satisfied

### Prompt Dear colleague, could you confirm whether Ki of COc1ccc2c(c1)CN(C)CC2c1ccc(Cl)c(Cl)c1 (centres undefined) falls below 4 µM? Thanks.
### Response satisfied

### Prompt Ki strictly < 4 µM for this compound? C(=C\c1ccccc1)/CN1CCN(CCOC(c2ccccc2)c2ccccc2)CC1
### Response satisfied

====

Where a name gives a salt, the structure may show the parent alone.
Please provide measured Ki for the entries that follow.

### Prompt For UniProt:P61169, give Ki of the listed compound: CN(C)CCCC1(c2ccc(F)cc2)OCc2cc(C#N)ccc21 (stereo not given) [CITALOPRAM HYDROBROMIDE]
Sequence (P61169 whole entry): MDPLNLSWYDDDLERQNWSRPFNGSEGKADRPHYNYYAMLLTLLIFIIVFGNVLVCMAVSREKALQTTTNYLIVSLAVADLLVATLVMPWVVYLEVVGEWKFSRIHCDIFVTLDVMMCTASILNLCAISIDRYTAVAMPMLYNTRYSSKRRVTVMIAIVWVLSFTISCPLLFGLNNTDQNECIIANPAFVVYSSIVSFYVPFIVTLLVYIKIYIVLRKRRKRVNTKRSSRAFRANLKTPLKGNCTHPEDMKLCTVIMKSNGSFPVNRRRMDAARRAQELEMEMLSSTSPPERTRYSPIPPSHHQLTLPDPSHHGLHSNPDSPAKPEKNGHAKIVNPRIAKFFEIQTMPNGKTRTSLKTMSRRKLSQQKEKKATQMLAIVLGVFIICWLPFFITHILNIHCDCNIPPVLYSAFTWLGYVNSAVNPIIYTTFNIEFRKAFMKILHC
### Response > 10 µM

### Prompt Tell me Ki of CN[C@H]1C[C@H](c2ccc(Cl)c(Cl)c2)c2ccccc21 [CAS_96850-13-4] when tested on UniProt:P61169.
### Response > 10 µM

### Prompt Specify the recorded Ki for Fc1ccc(C(OCCN2CCN(C/C=C/c3ccccc3)CC2)c2ccc(F)cc2)cc1 , system: UniProt:P61169.
### Response 0.81 µM

### Prompt Report Ki under test system UniProt:P61169 for CC(NC(C)(C)C)C(=O)c1cccc(Cl)c1 (stereo not given) [BUPROPION HYDROCHLORIDE] .
### Response > 10 µM

### Prompt Report measured Ki on UniProt:P61169; entry: C(=C\c1ccccc1)/CN1CCN(CCOC(c2ccccc2)c2ccccc2)CC1 [CAS_67469-75-4]
### Response 2.5 µM

### Prompt Under UniProt:P61169, report Ki for COc1ccc2c(c1)CN(C)CC2c1ccc(Cl)c(Cl)c1 (stereo not given)
### Response > 10 µM

### Prompt Fill in: Ki on UniProt:P61169, entry CN(C)C[C@@H]1C2CCC(CC2)[C@@H]1c1ccc(Cl)c(Cl)c1
### Response 0.57 µM

### Prompt Fill in: Ki on UniProt:P61169, entry CNCCC(Oc1ccccc1OC)c1ccccc1 (stereo not given)
### Response > 10 µM

### Prompt Provide the reported Ki (system: UniProt:P61169) for CN1Cc2c(N)cccc2[C@H](c2ccccc2)C1
### Response > 10 µM

### Prompt Look up and report Ki, with UniProt:P61169 as system, for CNCCCC1(c2ccccc2)SC(C)(C)c2ccccc21 (stereo not given) [Talsupram]
### Response > 10 µM
